Molecular target: rat α4β2 nAChR subtype (Rattus norvegicus (Rat), UniProt P09483+P12390)
Sequence (P09483 31-630): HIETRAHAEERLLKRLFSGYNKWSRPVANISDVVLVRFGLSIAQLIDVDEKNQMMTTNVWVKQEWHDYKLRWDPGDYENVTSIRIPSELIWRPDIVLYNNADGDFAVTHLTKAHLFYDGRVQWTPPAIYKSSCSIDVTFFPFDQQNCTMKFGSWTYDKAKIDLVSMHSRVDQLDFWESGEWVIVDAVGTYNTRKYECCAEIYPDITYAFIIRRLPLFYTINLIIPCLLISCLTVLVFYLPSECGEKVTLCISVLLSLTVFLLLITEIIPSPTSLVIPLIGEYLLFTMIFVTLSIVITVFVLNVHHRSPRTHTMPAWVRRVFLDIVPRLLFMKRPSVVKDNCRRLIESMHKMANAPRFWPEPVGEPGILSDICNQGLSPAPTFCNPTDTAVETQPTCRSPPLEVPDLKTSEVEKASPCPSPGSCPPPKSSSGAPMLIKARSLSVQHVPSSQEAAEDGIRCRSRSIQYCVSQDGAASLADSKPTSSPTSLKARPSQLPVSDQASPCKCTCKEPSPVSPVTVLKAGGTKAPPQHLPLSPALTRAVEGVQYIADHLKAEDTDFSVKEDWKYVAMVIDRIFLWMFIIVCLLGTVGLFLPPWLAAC
Sequence (P12390 25-500): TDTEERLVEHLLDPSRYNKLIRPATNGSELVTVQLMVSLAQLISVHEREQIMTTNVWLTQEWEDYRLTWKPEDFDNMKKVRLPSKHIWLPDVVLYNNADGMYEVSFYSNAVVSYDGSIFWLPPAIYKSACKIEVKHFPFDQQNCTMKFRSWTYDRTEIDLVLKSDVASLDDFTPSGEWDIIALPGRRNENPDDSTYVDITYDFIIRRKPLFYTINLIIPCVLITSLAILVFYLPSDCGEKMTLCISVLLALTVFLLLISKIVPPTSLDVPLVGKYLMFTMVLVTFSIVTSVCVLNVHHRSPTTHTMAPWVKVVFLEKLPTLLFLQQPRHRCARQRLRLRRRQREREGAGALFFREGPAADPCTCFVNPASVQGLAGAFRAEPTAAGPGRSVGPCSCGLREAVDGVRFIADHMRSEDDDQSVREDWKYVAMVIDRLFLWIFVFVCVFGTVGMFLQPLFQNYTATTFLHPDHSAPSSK
Assay: Radioligand ([3H]nicotine) binding at α4β2 nAChR, rat cortex membranes
Conditions: [3H]nicotine 5 nM, rat cortex membranes
Procedure: Preparation of Membranes from Rat Cortex: […] On the day of the assay, the frozen membranes were thawed and spun at 48,000×g for 20 min. […] Protein concentrations were determined using a Pierce BCA Protein Assay Kit, with bovine serum albumin as the standard (Pierce Chemical Company, Rockford, Ill.). […] Data were expressed as disintegrations per minute (DPMs). […]
Provide the reported Ki of each item.
The number alone won't do; follow it with the unit.

Recorded Ki for O=C(c1cc(F)co1)N1CC2CNCC2C1 (centres unmarked) , please? 36 nM

Recorded Ki for Cc1ncoc1C(=O)N1CC2CNCC(C2)C1 , please? 20 nM

Recorded Ki for O=C(c1cc(F)co1)N1CC2CNCC(C2)C1 , please? 28 nM

Recorded Ki for C=Cc1ccoc1C(=O)N1CC2CNCC2C1 (centres unmarked) , please? 140 nM

Recorded Ki for O=C(c1cnco1)N1CC2CNCC(C2)C1 , please? 28 nM

Recorded Ki for Cc1occc1C(=O)N1CC2CNCC2C1 (centres unmarked) , please? 61 nM

Recorded Ki for C#Cc1ccc(C(=O)N2CC3CNCC3C2)o1 (centres unmarked) , please? 140 nM

Recorded Ki for O=C(c1cc(-c2ccoc2)co1)N1CC2CNCC2C1 (centres unmarked) , please? 110 nM

Recorded Ki for O=C(c1cc(-c2ccccc2)co1)N1CC2CNCC2C1 (centres unmarked) , please? 260 nM

Recorded Ki for O=C(c1ccncc1)N1CC2CNCC(C2)C1 , please? 110 nM

Recorded Ki for O=C(c1occc1Cl)N1CC2CNCC2C1 (centres unmarked) , please? 2.8 nM

Recorded Ki for Cc1ncoc1C(=O)N1CC2CNCC2C1 (centres unmarked) , please? 15 nM

Recorded Ki for Cc1cc(F)c(C(=O)N2CC3CNCC(C3)C2)o1 , please? 500 nM

Recorded Ki for Cc1ccc(C(=O)N2CC3CNCC(C3)C2)o1 , please? 100 nM

Recorded Ki for O=C(c1ccc(Cl)o1)N1CC2CNCC(C2)C1 , please? 15 nM

Recorded Ki for O=C(c1ncco1)N1CC2CNCC(C2)C1 , please? 370 nM

Recorded Ki for N#Cc1ccc(C(=O)N2CC3CNCC3C2)o1 (centres unmarked) , please? 50 nM

Recorded Ki for O=C(c1ccon1)N1CC2CNCC2C1 (centres unmarked) , please? 89 nM

Recorded Ki for COc1ccoc1C(=O)N1CC2CNCC(C2)C1 , please? 560 nM

Recorded Ki for COc1ccoc1C(=O)N1CC2CNCC2C1 (centres unmarked) , please? 353 nM

Recorded Ki for CCCCC#Cc1coc(C(=O)N2CC3CNCC3C2)c1 (centres unmarked) , please? 43 nM

Recorded Ki for O=C(c1cc(Cl)co1)N1CC2CNCC2C1 (centres unmarked) , please? 21 nM

Recorded Ki for N#Cc1ccoc1C(=O)N1CC2CNCC(C2)C1 , please? 110 nM

###

Provide the reported pKi of each item.
biological target: human α4β2 nAChR subtype (Homo sapiens (Human), UniProt P17787+P43681); assay: Radioligand ([3H]nicotine) binding at α4β2 nAChR, SH-EP1/human α4β2 clonal cell membranes; details: [3H]nicotine 5 nM, SH-EP1/human α4β2 membranes; read-out: Human α4β2 Ki
Sequence (P43681 29-627): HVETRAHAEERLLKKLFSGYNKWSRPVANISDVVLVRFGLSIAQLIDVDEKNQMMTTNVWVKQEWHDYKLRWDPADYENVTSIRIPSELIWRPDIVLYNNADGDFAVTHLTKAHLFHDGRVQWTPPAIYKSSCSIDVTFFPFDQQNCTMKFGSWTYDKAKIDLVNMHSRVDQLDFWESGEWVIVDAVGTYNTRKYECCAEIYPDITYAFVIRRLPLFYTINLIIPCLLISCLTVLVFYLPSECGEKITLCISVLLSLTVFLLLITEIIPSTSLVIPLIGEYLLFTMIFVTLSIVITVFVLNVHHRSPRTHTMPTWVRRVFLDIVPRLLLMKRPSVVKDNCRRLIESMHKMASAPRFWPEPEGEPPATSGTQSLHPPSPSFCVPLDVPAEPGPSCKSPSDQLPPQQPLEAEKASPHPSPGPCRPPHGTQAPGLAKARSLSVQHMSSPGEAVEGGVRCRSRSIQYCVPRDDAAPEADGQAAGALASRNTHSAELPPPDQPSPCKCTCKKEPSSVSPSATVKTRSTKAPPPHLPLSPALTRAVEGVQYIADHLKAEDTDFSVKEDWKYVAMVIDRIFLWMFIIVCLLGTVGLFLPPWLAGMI
Sequence (P17787 26-502): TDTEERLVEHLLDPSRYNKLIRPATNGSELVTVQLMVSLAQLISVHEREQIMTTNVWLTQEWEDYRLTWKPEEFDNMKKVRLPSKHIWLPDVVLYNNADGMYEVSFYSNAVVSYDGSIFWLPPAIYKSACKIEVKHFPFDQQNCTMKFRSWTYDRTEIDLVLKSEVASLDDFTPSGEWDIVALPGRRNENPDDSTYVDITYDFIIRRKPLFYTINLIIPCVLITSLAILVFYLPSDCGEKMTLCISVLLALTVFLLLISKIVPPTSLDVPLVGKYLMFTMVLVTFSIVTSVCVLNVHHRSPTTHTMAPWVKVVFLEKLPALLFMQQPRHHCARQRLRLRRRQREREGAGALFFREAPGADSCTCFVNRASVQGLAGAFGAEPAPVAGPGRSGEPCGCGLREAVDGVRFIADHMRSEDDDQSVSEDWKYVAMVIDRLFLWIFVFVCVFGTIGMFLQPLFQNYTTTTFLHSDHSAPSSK
On this scale, pKi is minus log10 of a concentration expressed in M (mol/L).

Recorded pKi for O=CNc1ccc(C(=O)N2CC3CNCC3C2)o1 (stereo not shown) , please? 7.20

Recorded pKi for O=C(c1cc(Cl)co1)N1CC2CNCC2C1 (stereo not shown) , please? 8.01

Recorded pKi for Cc1ccc(C(=O)N2CC3CNCC3C2)o1 (stereo not shown) , please? 7.55

Recorded pKi for O=C(c1cc(-c2ccoc2)co1)N1CC2CNCC(C2)C1 , please? 7.46

Recorded pKi for Cc1nocc1C(=O)N1CC2CNCC(C2)C1 , please? 7.68

Recorded pKi for O=C(c1ccoc1)N1CC2CNCC2C1 (stereo not shown) , please? 6.66

Recorded pKi for O=C(c1occc1F)N1CC2CNCC2C1 (stereo not shown) , please? 7.57

###

target: α7 nAChR subtype (Rattus norvegicus (Rat)); test: Radioligand ([3H]MLA) binding at α7 nAChR, rat hippocampus membranes; conditions: [3H]MLA 5 nM, rat hippocampus membranes
Sequence (Q05941 23-502): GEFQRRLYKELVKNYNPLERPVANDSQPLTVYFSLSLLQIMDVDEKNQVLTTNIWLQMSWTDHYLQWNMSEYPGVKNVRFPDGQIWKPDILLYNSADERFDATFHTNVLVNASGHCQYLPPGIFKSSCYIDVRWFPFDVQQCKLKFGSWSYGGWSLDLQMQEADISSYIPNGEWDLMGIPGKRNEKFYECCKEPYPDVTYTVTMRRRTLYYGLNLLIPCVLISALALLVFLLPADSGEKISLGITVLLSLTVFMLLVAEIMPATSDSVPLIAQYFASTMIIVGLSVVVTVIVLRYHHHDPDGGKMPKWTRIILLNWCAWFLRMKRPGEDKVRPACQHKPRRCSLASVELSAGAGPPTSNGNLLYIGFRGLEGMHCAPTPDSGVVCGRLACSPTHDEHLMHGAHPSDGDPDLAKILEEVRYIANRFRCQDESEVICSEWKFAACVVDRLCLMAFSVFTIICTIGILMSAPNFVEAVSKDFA
The label label 1 is reserved for Ki strictly under 10 µM; label 0 covers values equal to or above it.

Lab note: confirm whether the reported Ki for this compound is below 10 µM, equality not counting. compound: O=C(c1occc1Br)N1CC2CNCC2C1 (centres unmarked) label 0

Lab note: confirm whether the reported Ki for this compound is below 10 µM, equality not counting. compound: Cc1occc1C(=O)N1CC2CNCC2C1 (centres unmarked) label 0

Lab note: confirm whether the reported Ki for this compound is below 10 µM, equality not counting. compound: O=C(c1ccc(Cl)o1)N1CC2CNCC(C2)C1 label 0

Lab note: confirm whether the reported Ki for this compound is below 10 µM, equality not counting. compound: O=C(c1ccco1)N1CC2CNCC2C1 (centres unmarked) label 0

Lab note: confirm whether the reported Ki for this compound is below 10 µM, equality not counting. compound: Cc1ccoc1C(=O)N1CC2CNCC2C1 (centres unmarked) label 0

Lab note: confirm whether the reported Ki for this compound is below 10 µM, equality not counting. compound: Cc1nocc1C(=O)N1CC2CNCC2C1 (centres unmarked) label 0

Lab note: confirm whether the reported Ki for this compound is below 10 µM, equality not counting. compound: O=C(c1ccc([N+](=O)[O-])o1)N1CC2CNCC2C1 (centres unmarked) label 1

Lab note: confirm whether the reported Ki for this compound is below 10 µM, equality not counting. compound: O=C(c1cc(-c2ccccc2)co1)N1CC2CNCC2C1 (centres unmarked) label 0

Lab note: confirm whether the reported Ki for this compound is below 10 µM, equality not counting. compound: O=C(c1ccc(C#Cc2ccccc2)o1)N1CC2CNCC2C1 (centres unmarked) label 1

Lab note: confirm whether the reported Ki for this compound is below 10 µM, equality not counting. compound: O=C(c1ccc(Cl)o1)N1CC2CNCC2C1 (centres unmarked) label 0

Lab note: confirm whether the reported Ki for this compound is below 10 µM, equality not counting. compound: O=C(c1ccncc1)N1CC2CNCC(C2)C1 label 1

Lab note: confirm whether the reported Ki for this compound is below 10 µM, equality not counting. compound: COc1cc(C(=O)N2CC3CNCC3C2)on1 (centres unmarked) label 1

Lab note: confirm whether the reported Ki for this compound is below 10 µM, equality not counting. compound: Cc1ncoc1C(=O)N1CC2CNCC2C1 (centres unmarked) label 0

Lab note: confirm whether the reported Ki for this compound is below 10 µM, equality not counting. compound: O=C(c1ccoc1)N1CC2CNCC2C1 (centres unmarked) label 1

###

Molecular target: human α4β2 nAChR subtype (Homo sapiens (Human), UniProt P17787+P43681)
Assay: Radioligand ([3H]nicotine) binding at α4β2 nAChR, SH-EP1/human α4β2 clonal cell membranes
Conditions: [3H]nicotine 5 nM, SH-EP1/human α4β2 membranes; read-out: Human α4β2 Ki
Description: Preparation of Membranes from SH-EP1/Human α4β2 Clonal Cells: Cell pellets from 40 150 mm culture dishes were pooled, and homogenized by Polytron (Kinematica GmbH, Switzerland) in 20 milliliters of ice-cold preparative buffer. […] On the day of the assay, the frozen membranes were thawed and spun at 48,000×g for 20 min. […] Protein concentrations were determined using a Pierce BCA Protein Assay Kit, with bovine serum albumin as the standard (Pierce Chemical Company, Rockford, Ill.). […]
Provide the reported Ki of each item.
Express it in nM; write the number only.

Recorded Ki for O=C(c1cc(C2CC2)on1)N1CC2CNCC(C2)C1 , please? 83

Recorded Ki for COc1coc(C(=O)N2CC3CNCC3C2)c1OC (stereo not shown) , please? 40

Recorded Ki for O=C(c1ccc(Cl)o1)N1CC2CNCC2C1 (stereo not shown) , please? 28

Recorded Ki for O=C(c1ccc(F)o1)N1CC2CNCC2C1 (stereo not shown) , please? 16

Recorded Ki for COc1cc(C(=O)N2CC3CNCC3C2)on1 (stereo not shown) , please? 19

Recorded Ki for O=C(c1ncco1)N1CC2CNCC(C2)C1 , please? 85

Recorded Ki for Cc1cc(C(=O)N2CC3CNCC3C2)on1 (stereo not shown) , please? 31

###

target: human α4β2 nAChR subtype (Homo sapiens (Human), UniProt P17787+P43681); experiment: Radioligand ([3H]nicotine) binding at α4β2 nAChR, SH-EP1/human α4β2 clonal cell membranes; details: [3H]nicotine 5 nM, SH-EP1/human α4β2 membranes; read-out: Human α4β2 Ki
pKi: −log10 of the molar value.
Values of pKi greater than or equal to 8 map to criterion met; values below map to criterion not met.

# bool: pKi of Cc1ccc(C(=O)N2CC3CNCC(C3)C2)o1 >= 8 criterion not met

# bool: pKi of O=C(c1ccno1)N1CC2CNCC(C2)C1 >= 8 criterion not met

# bool: pKi of O=C(c1ccc([N+](=O)[O-])o1)N1CC2CNCC2C1 (stereo not shown) >= 8 criterion not met

# bool: pKi of Cc1oc(C(=O)N2CC3CNCC(C3)C2)cc1Br >= 8 criterion met

# bool: pKi of O=C(c1cc(Br)co1)N1CC2CNCC2C1 (stereo not shown) >= 8 criterion not met

# bool: pKi of O=C(c1ccc(Br)o1)N1CC2CNCC(C2)C1 >= 8 criterion not met

# bool: pKi of O=C(c1cc(Cl)co1)N1CC2CNCC(C2)C1 >= 8 criterion met

# bool: pKi of COc1ccoc1C(=O)N1CC2CNCC2C1 (stereo not shown) >= 8 criterion not met

# bool: pKi of O=C(c1ccon1)N1CC2CNCC2C1 (stereo not shown) >= 8 criterion not met

# bool: pKi of O=C(c1cc(Br)no1)N1CC2CNCC2C1 (stereo not shown) >= 8 criterion not met

# bool: pKi of N#Cc1ccoc1C(=O)N1CC2CNCC(C2)C1 >= 8 criterion not met

# bool: pKi of Cc1oc(C(=O)N2CC3CNCC3C2)cc1Br (stereo not shown) >= 8 criterion not met

# bool: pKi of O=C(c1cc(-c2cc(F)cc(F)c2)co1)N1CC2CNCC2C1 (stereo not shown) >= 8 criterion not met

# bool: pKi of Cc1occc1C(=O)N1CC2CNCC2C1 (stereo not shown) >= 8 criterion not met

# bool: pKi of Cc1cc(C(F)(F)F)c(C(=O)N2CC3CNCC3C2)o1 (stereo not shown) >= 8 criterion not met

# bool: pKi of O=C(c1ccc(Br)o1)N1CC2CNCC2C1 (stereo not shown) >= 8 criterion not met

# bool: pKi of O=C(c1ccco1)N1CC2CNCC2C1 (stereo not shown) >= 8 criterion not met

# bool: pKi of C#Cc1ccc(C(=O)N2CC3CNCC(C3)C2)o1 >= 8 criterion not met

# bool: pKi of O=C(c1occc1Br)N1CC2CNCC2C1 (stereo not shown) >= 8 criterion met

# bool: pKi of O=C(c1ccncc1)N1CC2CNCC2C1 (stereo not shown) >= 8 criterion not met

# bool: pKi of O=C(c1cc(F)co1)N1CC2CNCC2C1 (stereo not shown) >= 8 criterion not met

# bool: pKi of O=C(c1occc1Cl)N1CC2CNCC2C1 (stereo not shown) >= 8 criterion met

# bool: pKi of O=C(c1cc(-c2cc(F)cc(F)c2)co1)N1CC2CNCC(C2)C1 >= 8 criterion not met

# bool: pKi of Cc1cc(F)c(C(=O)N2CC3CNCC(C3)C2)o1 >= 8 criterion not met

meta.source: patent US8921410B2
